Test system: TNFα secretion in RAW 264.7 macrophages
Assay: TNFα release assay in RAW 264.7 macrophages stimulated with LPS
Format: cell-based, mouse
Conditions: Mus musculus, RAW264.7, read-out: TNFα Secretion, IC50 μM
assay readout: IC50 (µM)

                                   molecule  assay_readout  reported_result
0  CC/C=C\C/C=C\C/C=C\C/C=C\C/C=C\C/C=C\CCC(=O)Nc1ccc(O)c(C(=O)O)c1 [III-1]           IC50              146
